Target: T1, GHRH receptor of human pituitary membranes (human, UniProt Q02643)
T1 sequence: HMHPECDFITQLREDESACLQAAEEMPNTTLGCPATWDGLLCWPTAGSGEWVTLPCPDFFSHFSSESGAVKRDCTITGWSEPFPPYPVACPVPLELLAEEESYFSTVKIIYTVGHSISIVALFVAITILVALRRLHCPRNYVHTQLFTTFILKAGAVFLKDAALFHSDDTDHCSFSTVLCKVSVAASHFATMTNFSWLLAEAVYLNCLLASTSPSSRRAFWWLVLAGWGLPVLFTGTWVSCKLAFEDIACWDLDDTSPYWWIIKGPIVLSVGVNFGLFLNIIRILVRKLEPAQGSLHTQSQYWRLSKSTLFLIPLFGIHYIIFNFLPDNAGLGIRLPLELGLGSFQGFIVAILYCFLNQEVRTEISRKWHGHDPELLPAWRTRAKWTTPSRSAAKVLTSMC
Experiment: competition vs 125I-[His1,Nle27]hGHRH(1-32)NH2, human pituitary membranes
Non-standard residues stand in square brackets, D forms with d. No end group written: not given here. Phe(F5) = N[C@@H](Cc1c(F)c(F)c(F)c(F)c1F)C(=O)O; NMeY = CN[C@@H](Cc1ccc(O)cc1)C(=O)O; Nle = CCCC[C@H](N)C(=O)O; Orn = NCCC[C@H](N)C(=O)O; Abu = CC[C@H](N)C(=O)O
Measured attribute: relative affinity (binding potency) compared to hGHRH(1-29)

INSERT INTO measurements (binder, reported_value) VALUES
  ('[NMeY][dA]DAIFTNSYR[Orn]VL[Abu]QLSAR[Orn]LLQDI[Nle]DR-NHEt [P-28421 [N-Me-Tyr^1, D-Ala^2, Orn^12, Abu^15, Orn^21, Nle^27, Asp^28]hGHRH(1-29)NH-CH2-CH3]', '2.5 vs hGHRH(1-29)NH2=1'),
  ('[NMeY][dA]DAIFTTSYR[Orn]VL[Abu]QLSAR[Orn]LLQDI[Nle]DR-NHMe [P-27410 [N-Me-Tyr^1, D-Ala^2, Thr^8, Orn^12, Abu^15, Orn^21, Nle^27, Asp^28]hGHRH(1-29)NH-CH3]', '5.98 vs hGHRH(1-29)NH2=1'),
  ('[NMeY][dA]DAIFTNSYR[Orn]VL[Abu]QLSAR[Orn]LLQDI[Nle]DR-NHMe [P-27409 [N-Me-Tyr^1, D-Ala^2, Orn^12, Abu^15, Orn^21, Nle^27, Asp^28]hGHRH(1-29)NH-CH3]', '7.57 vs hGHRH(1-29)NH2=1'),
  ('[NMeY]ADAIFTQSYR[Orn]VL[Abu]QLSAR[Orn]LLQDI[Nle]SR-NHMe [P-27405 [N-Me-Tyr^1, Gln^8, Orn^12, Abu^15, Orn^21, Nle^27]hGHRH(1-29)NH-CH3]', '3.04 vs hGHRH(1-29)NH2=1'),
  ('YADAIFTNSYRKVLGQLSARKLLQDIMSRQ (Dat^1; D-Ala^2; Fpa5^6; Orn^12; Abu^15; Orn^21; Nle^27; Gab^30 (in place of Gln^30); C-terminal -NH2) [P-25502 [Dat^1, D-Ala^2, Fpa5^6, Orn^12, Abu^15, Orn^21, Nle^27, Gab^30]hGHRH(1-30)NH2]', '3.54 vs hGHRH(1-29)NH2=1'),
  ('[NMeY][dA]DAIFTQSYR[Orn]VL[Abu]QLSAR[Orn]LLQDI[Nle]DR-NHMe [P-27403 [N-Me-Tyr^1, D-Ala^2, Gln^8, Orn^12, Abu^15, Orn^21, Nle^27, Asp^28]hGHRH(1-29)NH-CH3]', '10.3 vs hGHRH(1-29)NH2=1'),
  ('[NMeY][dA]DAI[Phe(F5)]TNSYR[Orn]VL[Abu]QLSAR[Orn]LLQDI[Nle]DR-NHMe [P-27404 [N-Me-Tyr^1, D-Ala^2, Fpa5^6, Orn^12, Abu^15, Orn^21, Nle^27, Asp^28]hGHRH(1-29)NH-CH3]', '6.83 vs hGHRH(1-29)NH2=1');

This collection of values is drawn from patent US20180250358A1.
